Each item that follows carries a reported pKd.
B1: scFv; the commonest letter at each place (parent)
chain 1: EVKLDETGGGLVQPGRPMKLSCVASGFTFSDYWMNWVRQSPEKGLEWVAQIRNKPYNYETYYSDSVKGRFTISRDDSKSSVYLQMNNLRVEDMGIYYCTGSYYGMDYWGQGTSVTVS
chain 2: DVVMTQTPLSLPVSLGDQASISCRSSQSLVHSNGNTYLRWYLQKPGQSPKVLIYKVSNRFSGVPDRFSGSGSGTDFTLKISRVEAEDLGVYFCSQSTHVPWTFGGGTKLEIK

variants of: B1; assay: Kd (Tite-Seq); conditions: with fluorescein; format: scFv 4-4-20, heavy + light
pKd: −log10 of the molar value.

{"mutation": "chain 1 M34H N35I", "pKd": "≤ 5.00"}

IN: I'd like to know its pKd. The variant in question is chain 1 F29P S30Y
OUT: 7.66

IN: I'd like to know its pKd. The variant in question is chain 1 F29C S30T N35E
OUT: 5.02

IN: I'd like to know its pKd. The variant in question is chain 1 G100E Y102S W108I
OUT: 7.52

The measured values listed here are drawn from the FLAb antibody collection (doi:10.7554/elife.23156).
